// data source = paper PMC12287439

subjectOfTest: UniProt:Q7Z3F1
Sequence (Q7Z3F1 whole entry): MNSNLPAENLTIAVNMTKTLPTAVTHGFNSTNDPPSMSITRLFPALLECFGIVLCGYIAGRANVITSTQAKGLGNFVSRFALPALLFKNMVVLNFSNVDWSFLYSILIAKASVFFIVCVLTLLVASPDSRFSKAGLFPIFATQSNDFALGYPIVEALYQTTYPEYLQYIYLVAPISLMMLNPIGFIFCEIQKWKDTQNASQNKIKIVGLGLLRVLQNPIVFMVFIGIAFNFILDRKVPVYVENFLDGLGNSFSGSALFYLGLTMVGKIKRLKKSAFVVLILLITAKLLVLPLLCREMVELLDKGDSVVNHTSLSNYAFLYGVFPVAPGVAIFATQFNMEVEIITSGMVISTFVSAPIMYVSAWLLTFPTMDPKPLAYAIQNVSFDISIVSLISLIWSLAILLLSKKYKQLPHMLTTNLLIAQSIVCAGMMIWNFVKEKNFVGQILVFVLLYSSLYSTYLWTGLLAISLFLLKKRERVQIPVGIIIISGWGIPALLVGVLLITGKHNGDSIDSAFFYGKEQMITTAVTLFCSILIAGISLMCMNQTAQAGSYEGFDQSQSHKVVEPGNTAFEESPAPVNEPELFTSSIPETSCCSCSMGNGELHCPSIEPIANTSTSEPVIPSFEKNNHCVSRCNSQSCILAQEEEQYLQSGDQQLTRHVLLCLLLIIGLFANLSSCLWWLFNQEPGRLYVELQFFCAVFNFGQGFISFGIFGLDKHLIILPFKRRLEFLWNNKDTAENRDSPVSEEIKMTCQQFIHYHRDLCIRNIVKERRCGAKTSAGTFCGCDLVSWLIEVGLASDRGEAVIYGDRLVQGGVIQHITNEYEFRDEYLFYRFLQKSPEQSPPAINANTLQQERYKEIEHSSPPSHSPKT
Sequence (Q8WTW4 whole entry partner): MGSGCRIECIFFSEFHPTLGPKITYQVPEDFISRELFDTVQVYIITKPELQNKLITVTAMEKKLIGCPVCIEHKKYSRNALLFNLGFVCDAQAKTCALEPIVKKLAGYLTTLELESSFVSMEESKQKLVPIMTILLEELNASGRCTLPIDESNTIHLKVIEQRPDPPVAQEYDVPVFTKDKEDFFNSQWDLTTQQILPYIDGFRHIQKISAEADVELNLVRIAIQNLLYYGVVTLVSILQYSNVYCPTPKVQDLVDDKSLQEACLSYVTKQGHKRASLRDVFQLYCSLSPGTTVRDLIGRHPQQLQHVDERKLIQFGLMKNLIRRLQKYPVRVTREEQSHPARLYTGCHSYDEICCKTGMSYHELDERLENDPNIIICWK
Sequence (Q12980 whole entry partner): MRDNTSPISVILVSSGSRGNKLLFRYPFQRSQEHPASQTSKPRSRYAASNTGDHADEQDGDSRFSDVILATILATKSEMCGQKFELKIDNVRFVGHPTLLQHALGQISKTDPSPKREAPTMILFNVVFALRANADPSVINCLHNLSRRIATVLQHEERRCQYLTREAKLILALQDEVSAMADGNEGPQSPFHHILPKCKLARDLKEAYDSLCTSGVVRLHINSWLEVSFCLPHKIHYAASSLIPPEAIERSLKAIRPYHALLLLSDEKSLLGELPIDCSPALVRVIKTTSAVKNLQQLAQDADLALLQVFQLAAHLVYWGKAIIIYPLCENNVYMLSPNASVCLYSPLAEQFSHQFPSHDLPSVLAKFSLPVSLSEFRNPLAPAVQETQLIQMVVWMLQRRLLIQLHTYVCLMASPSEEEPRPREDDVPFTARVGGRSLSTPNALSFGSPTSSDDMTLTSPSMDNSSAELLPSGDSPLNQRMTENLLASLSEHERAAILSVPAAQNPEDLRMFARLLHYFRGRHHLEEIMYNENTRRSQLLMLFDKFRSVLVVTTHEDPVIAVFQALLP
Sequence (O75140 whole entry partner): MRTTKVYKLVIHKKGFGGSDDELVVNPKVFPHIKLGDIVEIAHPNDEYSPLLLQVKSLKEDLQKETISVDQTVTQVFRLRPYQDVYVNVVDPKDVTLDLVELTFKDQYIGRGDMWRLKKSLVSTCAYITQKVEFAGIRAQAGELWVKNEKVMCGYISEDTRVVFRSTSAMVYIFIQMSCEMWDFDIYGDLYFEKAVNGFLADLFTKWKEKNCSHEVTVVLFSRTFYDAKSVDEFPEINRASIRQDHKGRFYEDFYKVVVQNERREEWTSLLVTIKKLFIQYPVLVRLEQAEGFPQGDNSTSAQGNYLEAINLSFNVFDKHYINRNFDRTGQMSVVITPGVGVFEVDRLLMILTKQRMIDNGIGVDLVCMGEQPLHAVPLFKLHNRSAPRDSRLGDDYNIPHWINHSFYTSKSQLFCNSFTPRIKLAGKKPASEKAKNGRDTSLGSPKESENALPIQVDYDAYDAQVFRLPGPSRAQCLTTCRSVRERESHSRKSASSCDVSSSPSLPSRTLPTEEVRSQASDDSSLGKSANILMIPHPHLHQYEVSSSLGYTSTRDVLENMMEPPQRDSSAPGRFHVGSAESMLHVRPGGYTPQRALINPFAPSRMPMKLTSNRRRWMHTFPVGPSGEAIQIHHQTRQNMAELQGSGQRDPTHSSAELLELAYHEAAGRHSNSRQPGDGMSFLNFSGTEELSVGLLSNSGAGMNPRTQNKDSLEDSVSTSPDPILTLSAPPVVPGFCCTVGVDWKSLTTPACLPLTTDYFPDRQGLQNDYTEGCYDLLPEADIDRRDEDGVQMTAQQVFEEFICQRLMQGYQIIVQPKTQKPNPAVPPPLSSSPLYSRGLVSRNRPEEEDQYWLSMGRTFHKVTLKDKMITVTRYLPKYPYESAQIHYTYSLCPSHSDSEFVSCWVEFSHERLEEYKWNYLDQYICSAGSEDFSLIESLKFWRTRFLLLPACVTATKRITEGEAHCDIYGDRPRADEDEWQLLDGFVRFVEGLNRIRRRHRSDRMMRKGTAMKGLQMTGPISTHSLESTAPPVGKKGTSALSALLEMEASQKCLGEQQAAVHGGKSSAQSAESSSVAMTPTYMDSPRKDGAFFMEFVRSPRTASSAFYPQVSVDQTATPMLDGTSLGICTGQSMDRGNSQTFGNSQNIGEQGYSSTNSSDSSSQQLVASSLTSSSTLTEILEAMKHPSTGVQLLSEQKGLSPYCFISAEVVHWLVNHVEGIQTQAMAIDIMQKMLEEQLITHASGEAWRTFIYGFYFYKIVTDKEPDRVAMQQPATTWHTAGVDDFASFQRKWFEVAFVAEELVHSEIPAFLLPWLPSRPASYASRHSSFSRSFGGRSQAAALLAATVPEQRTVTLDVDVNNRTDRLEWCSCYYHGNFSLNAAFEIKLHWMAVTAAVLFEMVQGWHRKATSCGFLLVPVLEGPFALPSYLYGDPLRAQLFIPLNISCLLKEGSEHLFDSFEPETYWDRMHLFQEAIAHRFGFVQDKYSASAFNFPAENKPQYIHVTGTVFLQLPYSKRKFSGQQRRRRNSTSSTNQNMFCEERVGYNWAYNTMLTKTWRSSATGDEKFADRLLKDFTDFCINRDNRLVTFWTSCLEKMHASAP
procedureSummary: BRET recruitment of GATOR1
valueKind: pEC50
Reminder that pEC50 means the negative base-10 logarithm of the concentration expressed in mol/L.

// query Any idea what pEC50 came out for CC(C)CCC[C@@H](C)[C@H]1CC[C@H]2[C@@H]3CC=C4C[C@@H](O)CC[C@]4(C)[C@H]3CC[C@]12C [cholesterol] on UniProt:Q7Z3F1?
// result 6.78
